The measurements presented in this section are drawn from patent EP2951180B1.

- Target desc: HDM2 (Homo sapiens, UniProt Q00987)
- Construct: Thioredoxin (N); made in house; host or cells: E. coli strain BL21(DE3)Rosetta
- Sequence (Q00987 17-125): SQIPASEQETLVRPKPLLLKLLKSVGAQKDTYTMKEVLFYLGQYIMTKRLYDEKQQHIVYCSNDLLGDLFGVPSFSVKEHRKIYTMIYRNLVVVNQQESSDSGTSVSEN
- Protocol notes: HDM2 FRET assay (inhibition of binding of FITC labeled p53-pocket peptide to HDM2)
- Reported conditions: Table 11; read-out: FRET IC50
Listed here are molecules together with their documented IC50.
Measured metric: IC50 (nM)

>>> numeric_result("C[C@@H](Nc1nc(-c2n[nH]c(=O)o2)nc2nc(N3CCO[C@H](C)[C@H]3c3ccccc3)n(C[C@H]3CC[C@H](C)CC3)c12)C1CCC1 [Example 11.166]")
0.79
>>> numeric_result("COc1cccc(C2CCCCN2c2nc3nc(C(=O)O)nc(N[C@H](C)C4CCC4)c3n2C[C@H]2CC[C@H](C)CC2)c1 (some centres unmarked) [Example 11.31]")
2.26
>>> numeric_result("C[C@@H](Nc1nc(-c2noc(=O)[nH]2)nc2nc(NC(CO)c3ccccc3)n(C[C@H]3CC[C@H](C)CC3)c12)C1CCC1 (single isomer, unassigned) [Example 11.121]")
40.1
>>> numeric_result("C[C@@H](Nc1nc(-c2noc(=O)[nH]2)nc2nc(N3CCOC[C@H]3c3ccccc3)n(C[C@H]3CC[C@H](C)CC3)c12)C1CCC1 [Example 11.11]")
0.626
>>> numeric_result("C[C@@H](Nc1nc(-c2n[nH]c(=O)o2)nc2nc(N3CCOC4CCCC43)n(C[C@H]3CC[C@H](C)CC3)c12)C1CCC1 (single isomer, unassigned) [Example 11.140]")
9.87
>>> numeric_result("C[C@@H](Nc1nc(C(=O)O)nc2nc(N3CCOC[C@H]3c3ccccc3)n(C[C@H]3CC[C@H](C)CC3)c12)C(F)(F)F [Example 11.51]")
2.26
>>> numeric_result("C[C@@H](Nc1nc(-c2n[nH]c(=O)o2)nc2nc(N3CCC[C@H]3C(F)(F)F)n(C[C@H]3CC[C@H](C)CC3)c12)C1CCC1 [Example 11.137]")
0.881
>>> numeric_result("C[C@@H]1COCCN1c1nc2nc(-c3noc(=O)[nH]3)nc(N[C@H](C)C3CCC3)c2n1C[C@H]1CC[C@H](C)CC1 [Example 11.65]")
1.45
>>> numeric_result("C[C@@H](Nc1nc(C(=O)O)nc2nc(N3CCCCC3Cc3ccc(F)cc3)n(C[C@H]3CC[C@H](C)CC3)c12)C1CCC1 (some centres unmarked) [Example 11.56]")
11.6
>>> numeric_result("C[C@@H](Nc1nc(-c2noc(=O)[nH]2)nc2nc(N3CC4CC4C3C(F)(F)F)n(C[C@H]3CC[C@H](C)CC3)c12)C1CCC1 (some centres unmarked) [Example 11.152]")
3.09
>>> numeric_result("C[C@@H](Nc1nc(-c2noc(=O)[nH]2)nc2nc(N3CCOC4CCCC43)n(C[C@H]3CC[C@H](C)CC3)c12)C1CCC1 (single isomer, unassigned) [Example 11.131]")
7.02
>>> numeric_result("C[C@@H](Nc1nc(-c2noc(=O)[nH]2)nc2nc(N3CCCCC3Cc3ccccc3)n(C[C@H]3CC[C@H](C)CC3)c12)C1CCC1 (some centres unmarked) [Example 11.45]")
81.9
>>> numeric_result("CC(Nc1nc2nc(-c3noc(=O)[nH]3)nc(N[C@H](C)C3CCC3)c2n1C[C@H]1CC[C@H](C)CC1)c1ccncn1 (some centres unmarked) [Example 11.89]")
13.8
>>> numeric_result("C[C@@H](Nc1nc(-c2noc(=O)[nH]2)nc2nc(N3CCC[C@@H]4CCCC[C@H]43)n(C[C@H]3CC[C@H](C)CC3)c12)C1CCC1 [Example 11.61]")
5.13
>>> numeric_result("C[C@@H]1CN(C)C(=O)CN1c1nc2nc(-c3noc(=O)[nH]3)nc(N[C@H](C)C3CCC3)c2n1C[C@H]1CC[C@H](C)CC1 [Example 11.120]")
5.57
>>> numeric_result("C[C@@H](Nc1nc(-c2noc(=O)[nH]2)nc2nc(N3CCCCC3c3cccnc3)n(C[C@H]3CC[C@H](C)CC3)c12)C1CCC1 (single isomer, unassigned) [Example 11.49]")
2.43
>>> numeric_result("CC(C)CC1COCCN1c1nc2nc(-c3noc(=O)[nH]3)nc(N[C@H](C)C3CCC3)c2n1C[C@H]1CC[C@H](C)CC1 (some centres unmarked) [Example 11.41]")
14.7
>>> numeric_result("Cc1nonc1CN(C)c1nc2nc(-c3noc(=O)[nH]3)nc(N[C@H](C)C3CCC3)c2n1C[C@H]1CC[C@H](C)CC1 [Example 11.63]")
3.71
>>> numeric_result("C[C@@H](Nc1nc(-c2noc(=O)[nH]2)nc2nc(NCc3c[nH]nc3-c3ccccc3)n(C[C@H]3CC[C@H](C)CC3)c12)C1CCC1 [Example 11.112]")
215
>>> numeric_result("C[C@@H](Nc1nc(-c2noc(=O)[nH]2)nc2nc(N(C)Cc3cncs3)n(C[C@H]3CC[C@H](C)CC3)c12)C1CCC1 [Example 11.73]")
11.5
>>> numeric_result("C[C@@H](Nc1nc(-c2noc(=O)[nH]2)nc2nc(N3CCOC[C@@H]3C)n(C[C@H]3CC[C@H](C)CC3)c12)C1CCC1 [Example 11.66]")
5.8
>>> numeric_result("C[C@@H](Nc1nc(-c2noc(=O)[nH]2)nc2nc(N(C)CC3CC3)n(C[C@H]3CC[C@H](C)CC3)c12)C1CCC1 [Example 11.42]")
5.34
>>> numeric_result("C[C@@H]1COC[C@@H](C)N1c1nc2nc(-c3noc(=O)[nH]3)nc(N[C@H](C)C3CCC3)c2n1C[C@H]1CC[C@H](C)CC1 [Example 11.129]")
0.788
